- Measurement notes: pKa determination, microplate spectrophotometer method
- Assay type: physicochemical
- Measurement conditions: aqueous buffer, pH 7.55, target pH 7.6, actual pH 7.55; 5 µg/mL; 248 nm; read-out: pKa
Property measured: pKa
Enter a number only.

Record CC[C@@H]1CN2CCc3c([nH]c4cccc(OC)c34)[C@@H]2C[C@@H]1/C(=C\OC)C(=O)OC , field pKa: 8.09

====

- Measurement notes: pKa determination, microplate spectrophotometer method
- Type: physicochemical
- Measurement conditions: aqueous buffer, pH 8.5, target pH 8.6, actual pH 8.50; 5 µg/mL; 248 nm; read-out: pKa
Property measured: pKa

Record CC[C@@H]1CN2CCc3c([nH]c4cccc(OC)c34)[C@@H]2C[C@@H]1/C(=C\OC)C(=O)OC , field pKa: 8.03

====

- Measurement notes: pKa determination, conventional UV spectrophotometer method
- Assay type: physicochemical
- Measurement conditions: aqueous buffer, UV Spectrophotometer, Day 1; read-out: pKa, interday repeatability
Property measured: pKa
Enter a number only.

Record CC[C@@H]1CN2CCc3c([nH]c4cccc(OC)c34)[C@@H]2C[C@@H]1/C(=C\OC)C(=O)OC [mitragynine] , field pKa: 8.18

====

- Measurement notes: Equilibrium solubility in water and buffers (HPLC-UV)
- Assay type: physicochemical
- Measurement conditions: distilled water, water, 37 °C
Property measured: solubility at 48 h

Record CC[C@@H]1CN2CCc3c([nH]c4cccc(OC)c34)[C@@H]2C[C@@H]1/C(=C\OC)C(=O)OC , field solubility at 48 h: < 100 µg/mL

====

- Measurement notes: pKa determination, microplate spectrophotometer method
- Assay type: physicochemical
- Measurement conditions: aqueous buffer, pH 7.6, microplate method, mean over pH 7.6-9.0; read-out: pKa (Mean ± SD)
Property measured: pKa
Enter a number only.

Record CC[C@@H]1CN2CCc3c([nH]c4cccc(OC)c34)[C@@H]2C[C@@H]1/C(=C\OC)C(=O)OC , field pKa: 8.08
